Attribute: IC50
Molecular target: cAMP-dependent protein kinase catalytic subunit alpha (Homo sapiens, UniProt P17612)
Assay: Inhibition of PKA catalytic subunit alpha using 100 uM ATP and 30 uM TAMRA-kemptide substrate by fluorometric TLC assay
Form entry: value (nM) — number only.

// sample NC(=O)CCCCCNC(=O)[C@H]1O[C@@H](n2cnc3c(N)ncnc32)[C@H](O)[C@@H]1O , its IC50 was 26000

// sample C[C@@H](NC(=O)CCCCCNC(=O)[C@H]1O[C@@H](n2cnc3c(N)ncnc32)[C@H](O)[C@@H]1O)C(=O)NCCCCCC(=O)N[C@H](CCCN=C(N)N)C(=O)N[C@H](CCCN=C(N)N)C(N)=O , its IC50 was 97

// sample C[C@@H](NC(=O)CCCCCNC(=O)[C@@H]1C[C@@H](O)[C@H](n2cnc3c(N)ncnc32)C1)C(=O)NCCCCCC(=O)N[C@H](CCCNC(=N)N)C(=O)N[C@H](CCCNC(=N)N)C(N)=O , its IC50 was 21.1

----------
Biological target: RAC-gamma serine/threonine-protein kinase (Homo sapiens)
Sequence (Q9Y243 whole entry): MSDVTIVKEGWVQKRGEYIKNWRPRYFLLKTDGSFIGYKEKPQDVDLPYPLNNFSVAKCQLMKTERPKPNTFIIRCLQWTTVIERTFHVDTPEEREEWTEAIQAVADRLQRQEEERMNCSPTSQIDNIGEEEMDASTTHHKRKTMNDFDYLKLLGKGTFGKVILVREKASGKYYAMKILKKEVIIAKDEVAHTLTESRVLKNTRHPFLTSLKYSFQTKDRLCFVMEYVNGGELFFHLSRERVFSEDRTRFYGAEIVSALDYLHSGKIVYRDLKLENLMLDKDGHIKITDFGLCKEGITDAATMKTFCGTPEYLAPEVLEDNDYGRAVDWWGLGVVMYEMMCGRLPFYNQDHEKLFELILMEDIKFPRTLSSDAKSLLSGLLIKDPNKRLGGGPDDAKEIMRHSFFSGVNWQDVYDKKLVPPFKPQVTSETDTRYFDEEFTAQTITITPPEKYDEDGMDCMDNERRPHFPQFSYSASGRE
Assay: Inhibition of PKBgamma using 100 uM ATP and 30 uM TAMRA-kemptide substrate by fluorometric TLC assay
Where a SMILES comes first, the peptide text is derived from it. [ ]: non-standard residue; d: D form. The star is where a group is joined. Adenosine(5'-uronoyl) = Nc1ncnc2c1ncn2[C@@H]1O[C@H](C(=O)*)[C@@H](O)[C@H]1O; Ahx = NCCCCCC(=O)O
METRIC: IC50 (µM)
Form entry: value (µM) — number only.

N=C(N)NCCC[C@@H](NC(=O)[C@@H](CCCNC(=N)N)NC(=O)[C@@H](CCCNC(=N)N)NC(=O)[C@@H](CCCNC(=N)N)NC(=O)[C@@H](CCCNC(=N)N)NC(=O)[C@@H](CCCNC(=N)N)NC(=O)CCCCCNC(=O)[C@@H](CCCCN)NC(=O)CCCCCNC(=O)[C@H]1O[C@@H](n2cnc3c(N)ncnc32)[C@H](O)[C@@H]1O)C(N)=O ({Adenosine(5'-uronoyl)-Ahx}-[dK][Ahx][dR][dR][dR][dR][dR][dR]-NH2) : 0.0146
C[C@@H](NC(=O)CCCCCNC(=O)[C@H]1O[C@@H](n2cnc3c(N)ncnc32)[C@H](O)[C@@H]1O)C(=O)NCCCCCC(=O)N[C@H](CCCN=C(N)N)C(=O)N[C@H](CCCN=C(N)N)C(N)=O : 3.75

Continue with the compound presented below.
// sample NC(=O)[C@@H](CCCN=C(N)N)NC(=O)CCCCCNC(=O)[C@H]1O[C@@H](n2cnc3c(N)ncnc32)[C@H](O)[C@@H]1O , its IC50 was 1.61

This collection of values is drawn from ChEMBL document CHEMBL1139385.
